subjectOfTest: Amine oxidase [flavin-containing] A (Rattus norvegicus)
procedureText: In vitro inhibitory activity on rat brain by monoamine oxidase A (MAO-A)
observationType: IC50 (µM)
Express it in µM; write the number only.

smilesCode	measurement
Cc1ccc(COc2ccc(-c3nn(CCC#N)c(=O)o3)cc2)cc1	25
N#CCCN1N=C(c2ccc(OCc3ccccc3)cc2)OCC1=O	160
Cc1cccc(COc2ccc(-c3nn(CCC#N)c(=O)o3)cc2)c1	20

Quick note, IC50 for N#CCCn1nc(-c2ccc(OCc3ccc(Cl)cc3)cc2)oc1=O landed at 3.3

###

subjectOfTest: UniProt P19643
procedureText: In vitro inhibitory activity on rat brain MAO-B.
Mark true for IC50 under 70 nM, false if at or over.

Illustrative cases are given below, each with its answer.
molecule	groupLabel
N#CCn1nc(-c2ccc(OCc3ccccc3)cc2)oc1=O	true
N#CCCn1nc(-c2ccc(OCc3cccc(Cl)c3)cc2)oc1=O	true
N#CCCCCn1nc(-c2ccc(OCc3ccccc3)cc2)oc1=O	false
O=c1oc(-c2ccc(OCc3ccccc3)cc2)nn1CCO	true

Exercise: Threshold test, IC50 < 70 nM: CC(C#N)Cn1nc(-c2ccc(OCc3ccccc3)cc2)oc1=O (stereo unspecified)
Key: false

Exercise: Please determine if Cc1cccc(COc2ccc(-c3nn(CCC#N)c(=S)o3)cc2)c1 is below 70 nM in terms of IC50.
Key: true

Exercise: For COc1ccc(COc2ccc(C3=NN(CCC#N)C(=O)CO3)cc2)cc1 , is the recorded IC50 below the cut-off of 70 nM?
Key: false

Exercise: Please determine if Cc1ccc(COc2ccc(C3=NN(CCC#N)C(=O)CO3)cc2)cc1 is below 70 nM in terms of IC50.
Key: false

Exercise: Please let me know if Cc1ccc(COc2ccc(-c3nn(CCC#N)c(=O)o3)cc2)cc1 shows IC50 below 70 nM.
Key: true

Exercise: In the record for CC(C#N)n1nc(-c2ccc(OCc3ccccc3)cc2)oc1=O (stereo unspecified) , is IC50 less than 70 nM?
Key: false

Exercise: Record N#CCCN1N=C(c2ccc(OCc3ccccc3)cc2)OCC1=S : is its IC50 strictly below 70 nM?
Key: false

###

subjectOfTest: UniProt P19643
procedureText: Compound was evaluated for the time-dependence inhibition of MAO-B at 60 minutes preincubation periods
observationType: pIC50
# pIC50 is unitless: minus log10 of the molar concentration; print number only

These solved cases illustrate the format of a correct answer.
smilesCode	observationType	measurement
N#CCCn1nc(-c2ccc(OCc3ccccc3)cc2)oc1=S	pIC50	8.43
O=c1oc(-c2ccc(OCc3ccccc3)cc2)nn1CCO	pIC50	8.34

Attention now turns to another entry.
Looking up N#CCCn1nc(-c2ccc(OCc3ccccc3)cc2)oc1=O , I see its pIC50 listed as 8.85

###

subjectOfTest: Amine oxidase [flavin-containing] B (Rattus norvegicus)
Sequence (P19643 whole entry): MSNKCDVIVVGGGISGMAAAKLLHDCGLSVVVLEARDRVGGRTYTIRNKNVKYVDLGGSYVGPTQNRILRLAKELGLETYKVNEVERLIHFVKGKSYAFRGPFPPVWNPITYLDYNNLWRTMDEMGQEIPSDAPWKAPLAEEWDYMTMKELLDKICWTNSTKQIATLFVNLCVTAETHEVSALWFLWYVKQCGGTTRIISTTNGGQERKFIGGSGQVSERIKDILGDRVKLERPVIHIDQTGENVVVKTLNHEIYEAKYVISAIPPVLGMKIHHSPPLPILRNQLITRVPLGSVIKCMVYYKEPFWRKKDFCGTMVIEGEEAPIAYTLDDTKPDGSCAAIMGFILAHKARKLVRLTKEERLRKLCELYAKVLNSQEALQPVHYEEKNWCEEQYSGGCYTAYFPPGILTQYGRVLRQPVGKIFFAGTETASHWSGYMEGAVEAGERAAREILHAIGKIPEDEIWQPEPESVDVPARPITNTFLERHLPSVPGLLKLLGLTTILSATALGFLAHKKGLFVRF
procedureText: Ex-Vivo percentage inhibition of MAO-B after 24 hr single 5 mg/kg dose by oral gavage
Assay type: organism-based
Design: dose 5 mg/kg, route oral
Reported inhibition at 5 mg/kg values follow for various compounds
Just the number in %, nothing appended.

Worked cases, inhibition at 5 mg/kg given:
smilesCode	displayUnit	inhibition at 5 mg/kg
N#CCCn1nc(-c2ccc(OCc3ccccc3)cc2)sc1=S	%	8
COc1cccc(COc2ccc(-c3nn(CCC#N)c(=O)o3)cc2)c1	%	-3
N#CCCn1nc(-c2ccc(OCc3ccccc3)cc2)oc1=S	%	21
N#CCCn1nc(-c2ccc(OCc3ccc(Cl)cc3)cc2)oc1=O	%	-6

Entry N#CCCn1nc(-c2ccc(OCc3ccccc3)cc2)sc1=O — recorded inhibition at 5 mg/kg = 15

###

subjectOfTest: Amine oxidase [flavin-containing] A (Rattus norvegicus)
Sequence (P21396 whole entry): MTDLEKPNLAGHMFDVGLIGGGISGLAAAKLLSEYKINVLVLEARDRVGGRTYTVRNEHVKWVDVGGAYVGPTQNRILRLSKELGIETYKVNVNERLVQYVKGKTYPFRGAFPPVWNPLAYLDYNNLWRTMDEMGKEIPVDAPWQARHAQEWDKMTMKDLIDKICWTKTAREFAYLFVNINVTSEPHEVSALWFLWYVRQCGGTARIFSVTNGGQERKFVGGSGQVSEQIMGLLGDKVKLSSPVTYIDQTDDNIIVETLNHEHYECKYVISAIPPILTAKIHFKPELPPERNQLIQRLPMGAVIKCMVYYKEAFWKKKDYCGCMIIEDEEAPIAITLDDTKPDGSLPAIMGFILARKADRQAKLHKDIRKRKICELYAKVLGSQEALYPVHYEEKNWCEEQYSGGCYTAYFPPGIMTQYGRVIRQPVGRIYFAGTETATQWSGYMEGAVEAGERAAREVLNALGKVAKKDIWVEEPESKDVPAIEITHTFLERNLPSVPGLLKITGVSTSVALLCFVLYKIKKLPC
procedureText: In vitro inhibitory activity on rat brain by monoamine oxidase A (MAO-A)
Recorded measurements of pIC50, one per entry
Scale note: pIC50 = -log10(concentration in M).

Worked set:
smilesCode	measurement
N#CCCn1nc(-c2ccc(OCc3ccc([N+](=O)[O-])cc3)cc2)oc1=O	4.96
Cc1ccc(COc2ccc(C3=NN(CCC#N)C(=O)CO3)cc2)cc1	3.60
COc1cccc(COc2ccc(C3=NN(CCC#N)C(=O)CO3)cc2)c1	4.49

Result for Cc1cccc(COc2ccc(-c3nn(CCC#N)c(=S)o3)cc2)c1 , tested on Amine oxidase [flavin-containing] A (Rattus norvegicus), pIC50: 4.85

###

subjectOfTest: Amine oxidase [flavin-containing] A (Rattus norvegicus)
Sequence (P21396 whole entry): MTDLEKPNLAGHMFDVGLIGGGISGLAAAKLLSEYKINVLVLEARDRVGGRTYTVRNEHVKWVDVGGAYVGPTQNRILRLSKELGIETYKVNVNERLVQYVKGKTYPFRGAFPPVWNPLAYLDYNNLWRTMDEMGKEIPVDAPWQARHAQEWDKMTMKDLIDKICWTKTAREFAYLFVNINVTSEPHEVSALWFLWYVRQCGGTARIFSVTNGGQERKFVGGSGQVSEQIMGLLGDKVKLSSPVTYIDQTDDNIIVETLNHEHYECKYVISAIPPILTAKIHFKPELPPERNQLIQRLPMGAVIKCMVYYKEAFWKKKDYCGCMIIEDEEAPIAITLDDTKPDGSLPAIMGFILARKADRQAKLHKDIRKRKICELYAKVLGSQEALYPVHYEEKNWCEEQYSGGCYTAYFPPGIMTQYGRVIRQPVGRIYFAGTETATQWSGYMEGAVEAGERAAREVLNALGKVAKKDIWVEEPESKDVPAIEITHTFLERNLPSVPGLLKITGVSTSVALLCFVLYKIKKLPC
procedureText: In vitro inhibitory activity on rat brain by monoamine oxidase A (MAO-A)
Recorded IC50 for the following compounds

Recorded IC50, per entry:
smilesCode	IC50
COc1ccc(COc2ccc(-c3nn(CCC#N)c(=S)o3)cc2)cc1	4.8 µM
COc1ccc(COc2ccc(C3=NN(CCC#N)C(=O)CO3)cc2)cc1	45 µM
N#CCCn1nc(-c2ccc(OCc3ccc(Cl)cc3)cc2)oc1=S	2.7 µM

Summary for this compound, COc1ccc(COc2ccc(-c3nn(CCC#N)c(=O)o3)cc2)cc1 : IC50 is 16 µM

IC50 for N#CCCN1N=C(c2ccc(OCc3ccccc3)cc2)OCC1=S is 25 µM

Record N#CCCn1nc(-c2ccc(OCc3cccc(Cl)c3)cc2)oc1=S . Reported IC50: 11 µM

Value of measured IC50 for the entry COc1cccc(COc2ccc(-c3nn(CCC#N)c(=S)o3)cc2)c1 : 8.1 µM

The reported value for N#CCCn1nc(-c2ccc(OCc3cccc(Cl)c3)cc2)oc1=O in terms of IC50 is 7.4 µM
